Would you kindly list inhibition for each of these compounds?
Assay: growth inhibition of RCMB18 medulloblastoma cells, cell-based, cisplatin and BGB IC40 combos (AID 1671462);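 also: cells exposed to compound for four days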
Settings: at 0.5 µM, active compounds read high
Quick note: give the figure in %, leave out the unit.

// recorded inhibition for O=C1CCC[C@@H]2[C@H]3CCCN4CCC[C@@H](CN12)[C@@H]34 : -5.51

// recorded inhibition for Cn1c(CCCC(=O)O)nc2cc(N(CCCl)CCCl)ccc21 : -2.17

// recorded inhibition for COc1cc(C2c3cc4c(cc3C(O)C3COC(=O)C23)OCO4)cc(OC)c1OC (stereo unspecified) : 21.7

// recorded inhibition for Cn1c(COP(=O)(NCCBr)NCCBr)cnc1[N+](=O)[O-] : -3.65

// recorded inhibition for NC(Cc1ccc(N(CCCl)CCCl)cc1)C(=O)O (stereo unspecified) : -26.4

// recorded inhibition for CCC1(c2ccccc2)C(=O)NC(=O)NC1=O : 1.72
